Item-by-item account of Selectivity factor
target-or-test-system: human CYP11B2 (Homo sapiens)
Construct: expressed in transfected cells; host or cells: V79 cells (Chinese hamster lung-derived fibroblasts, from ECACC through DS Pharma Biomedical)
Sequence (P19099 25-503): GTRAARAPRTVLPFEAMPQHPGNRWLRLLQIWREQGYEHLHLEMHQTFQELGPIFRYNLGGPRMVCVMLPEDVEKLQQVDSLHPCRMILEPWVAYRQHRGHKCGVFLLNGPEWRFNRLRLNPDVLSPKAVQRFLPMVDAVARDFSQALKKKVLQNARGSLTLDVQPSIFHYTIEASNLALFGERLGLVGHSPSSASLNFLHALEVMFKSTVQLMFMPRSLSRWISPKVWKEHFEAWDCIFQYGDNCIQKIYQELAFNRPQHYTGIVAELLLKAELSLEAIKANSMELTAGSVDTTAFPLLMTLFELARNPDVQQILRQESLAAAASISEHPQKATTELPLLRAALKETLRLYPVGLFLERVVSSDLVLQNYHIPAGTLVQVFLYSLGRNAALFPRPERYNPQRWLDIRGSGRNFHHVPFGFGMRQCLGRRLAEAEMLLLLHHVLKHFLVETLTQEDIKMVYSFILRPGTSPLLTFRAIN
experiment-summary: Aldosterone production inhibition in V79-B2 cells expressing human CYP11B2 (ELISA)
Assay type: cell-based
recorded-conditions: mean IC50 cortisol production inhibition divided by mean IC50 aldosterone production inhibition

Examples from the recorded data:
[[record]]
given_smiles = "FCCn1c(-c2cncc(Cn3ccnc3)c2)nc2cc(F)c(Br)cc21"
reported_endpoint = "Selectivity factor"
result = 19.0

[[record]]
given_smiles = "CC(C)n1c(-c2cncc(Cn3ccnc3)c2)nc2ccc(I)cc21"
reported_endpoint = "Selectivity factor"
result = 3.17

[[record]]
given_smiles = "FCCn1c(-c2cncc(Cn3ccnc3)c2)nc2cc(F)c(I)cc21"
reported_endpoint = "Selectivity factor"
result = 7.77

[[record]]
given_smiles = "Cn1c(-c2cncc(Cn3ccnc3)c2)nc2ccc(I)cc21"
reported_endpoint = "Selectivity factor"
result = 7.62

[[record]]
given_smiles = "FCCn1c(-c2cncc(Cn3ccnc3)c2)nc2cc(F)c(Cl)cc21"
reported_endpoint = "Selectivity factor"
result = 15.8

[[record]]
given_smiles = "Ic1ccc2nc(-c3cncc(Cn4ccnc4)c3)n(C3CC3)c2c1"
reported_endpoint = "Selectivity factor"
result = 20.5

[[record]]
given_smiles = "FCCn1c(-c2cncc(Cn3ccnc3)c2)nc2ccc(I)cc21"
reported_endpoint = "Selectivity factor"
result = 11.9

[[record]]
given_smiles = "COC(=O)c1cncn1Cc1cncc(-c2nc3cc(F)c(Br)cc3n2CCO)c1"
reported_endpoint = "Selectivity factor"
result = 1.79


Q: # assay system human CYP11B2 (Homo sapiens): give Selectivity factor of FCCn1c(-c2cncc(Cn3cncc3I)c2)nc2cc(F)c(Cl)cc21
A: 9.27

---

experiment-summary: In vivo kinetics experiment (radioactivity distribution)
Parameters: species or system Wistar male rat
recorded-conditions: rat, caudal vein, 60 min after administration
Please use true (1) for Radioactivity distribution Remaining whole body under 0.3 % ID/g and false (0) for everything else, ties included.

Known results for compounds:
[[record]]
compound = "Fc1cc2nc(-c3cncc(Cn4ccnc4)c3)n(CC[18F])c2cc1Cl [[^18F] 100]"
class_assignment = "true (1)"

[[record]]
compound = "Fc1cc2nc(-c3cncc(Cn4ccnc4)c3)n(CC[18F])c2cc1Br [[^18F] 200]"
class_assignment = "true (1)"

[[record]]
compound = "Fc1cc2nc(-c3cncc(Cn4ccnc4)c3)n(CCC[18F])c2cc1Cl [[^18F] 500]"
class_assignment = "true (1)"

[[record]]
compound = "FCCn1c(-c2cncc(Cn3ccnc3)c2)nc2cc(F)c([123I])cc21 [[^123I] 400]"
class_assignment = "false (0)"

[[record]]
compound = "[123I]c1ccc2nc(-c3cncc(Cn4ccnc4)c3)n(C3CC3)c2c1 [[^123I] 602]"
class_assignment = "false (0)"


Q: is_below(Radioactivity distribution Remaining whole body, 0.3 % ID/g) for [123I]c1ccc2nc(-c3cncc(Cn4ccnn4)c3)n(C3CC3)c2c1 [[^123I] 603] ?
A: true (1)

---

experiment-summary: In vivo kinetics experiment (radioactivity distribution)
Parameters: species or system Wistar male rat
recorded-conditions: 60 min after administration; rat i.v.; mean ± SD
reported-endpoint: Radioactivity distribution Whole brain (% ID/g)
Your answer should be a plain number; it is taken to be in % ID/g.

Field: example entries. Status: answers known.
[[record]]
molecule = "CCn1c(-c2cncc(Cn3ccnc3)c2)nc2ccc([123I])cc21 [[^123I] 608]"
units = "% ID/g"
numeric_value = 0.02

[[record]]
molecule = "COC(=O)c1cncn1[C@H](C)c1ccc(I)cc1 [[^123I] IMTO, (R)-[^123I]iodometomidate, reference compound]"
units = "% ID/g"
numeric_value = 0.11

[[record]]
molecule = "FCCn1c(-c2cncc(Cn3cncc3[123I])c2)nc2cc(F)c(Cl)cc21 [[^123I] 610]"
units = "% ID/g"
numeric_value = 0.03


Q: Supply reported Radioactivity distribution Whole brain belonging to this molecule: FCCn1c(-c2cncc(Cn3ccnc3)c2)nc2ccc([123I])cc21 [[^123I] 604]
A: 0.01

---

experiment-summary: In vivo kinetics experiment (radioactivity distribution)
Parameters: species or system Wistar male rat
recorded-conditions: 10 min after administration; rat i.v.; mean ± SD
Procedure: Each of Compounds [^18F] 100, [^18F] 200, [^123I] 400, [^18F] 500, and [^123I] 601 to 610 obtained by the methods described in Examples 2, 4, 7, 9, 11, 13, 15, 17, 19, 21, 23, 25, 27, and 29, or [^123I] […] From the thus sacrificed rat, blood and organs (heart, lung, stomach, liver, spleen, small intestine, large intestine, kidney, bladder (including urine), muscle (lower limbs), brain, adrenal gland, testis, fat, femur, or thyroid gland) were excised, and the weights thereof were then measured. […]
reported-endpoint: Radioactivity distribution Fat (% ID/g)
Report the value in % ID/g with no unit label.

Answered cases to consult:
[[record]]
molecule = "CC(C)n1c(-c2cncc(Cn3ccnc3)c2)nc2ccc([123I])cc21 [[^123I] 606]"
reported_endpoint = "Radioactivity distribution Fat"
units = "% ID/g"
numeric_value = 0.13

[[record]]
molecule = "CCn1c(-c2cncc(Cn3ccnc3)c2)nc2ccc([123I])cc21 [[^123I] 608]"
reported_endpoint = "Radioactivity distribution Fat"
units = "% ID/g"
numeric_value = 0.10

[[record]]
molecule = "FCCn1c(-c2cncc(Cn3cncc3[123I])c2)nc2cc(F)c(Cl)cc21 [[^123I] 610]"
reported_endpoint = "Radioactivity distribution Fat"
units = "% ID/g"
numeric_value = 0.13

[[record]]
molecule = "Cn1c(-c2cncc(Cn3ccnc3)c2)nc2ccc([123I])cc21 [[^123I] 607]"
reported_endpoint = "Radioactivity distribution Fat"
units = "% ID/g"
numeric_value = 0.12

[[record]]
molecule = "COc1cc([123I])cc2c1nc(-c1cncc(Cn3ccnc3)c1)n2C1CC1 [[^123I] 609]"
reported_endpoint = "Radioactivity distribution Fat"
units = "% ID/g"
numeric_value = 0.09


Q: // Input: Fc1cc2nc(-c3cncc(Cn4ccnc4)c3)n(Cc3ccc([123I])cc3)c2cc1Cl [[^123I] 605] . Output its Radioactivity distribution Fat only.
A: 0.14

Q: Provide only the value of recorded Radioactivity distribution Fat for FCCn1c(-c2cncc(Cn3ccnc3)c2)nc2ccc([123I])cc21 [[^123I] 604]
A: 0.11

---

The molecules listed here are annotated with their Radioactivity distribution Kidney.
experiment-summary: In vivo kinetics experiment (radioactivity distribution)
Design: species or system Wistar male rat
recorded-conditions: rat, caudal vein, 30 min after administration
Description: Each of Compounds [^18F] 100, [^18F] 200, [^123I] 400, [^18F] 500, and [^123I] 601 to 610 obtained by the methods described in Examples 2, 4, 7, 9, 11, 13, 15, 17, 19, 21, 23, 25, 27, and 29, or [^123I] […] From the thus sacrificed rat, blood and organs (heart, lung, stomach, liver, spleen, small intestine, large intestine, kidney, bladder (including urine), muscle (lower limbs), brain, adrenal gland, testis, fat, femur, or thyroid gland) were excised, and the weights thereof were then measured. […]
Entry rule: numbers only, all in % ID/g.

Example entries begin here.
[[record]]
molecule = "Fc1cc2nc(-c3cncc(Cn4ccnc4)c3)n(CC[18F])c2cc1Br [[^18F] 200]"
units = "% ID/g"
numeric_value = 1.33

[[record]]
molecule = "Fc1cc2nc(-c3cncc(Cn4ccnc4)c3)n(CCC[18F])c2cc1Cl [[^18F] 500]"
units = "% ID/g"
numeric_value = 1.10

[[record]]
molecule = "Fc1cc2nc(-c3cncc(Cn4ccnc4)c3)n(CC[18F])c2cc1Cl [[^18F] 100]"
units = "% ID/g"
numeric_value = 1.10


Q: Given the molecule [123I]c1ccc2nc(-c3cncc(Cn4ccnc4)c3)n(C3CC3)c2c1 [[^123I] 602] , write its reported Radioactivity distribution Kidney.
A: 0.95

Q: Please report Radioactivity distribution Kidney for the following molecule: FCCn1c(-c2cncc(Cn3ccnc3)c2)nc2cc(F)c([123I])cc21 [[^123I] 400]
A: 0.95

Q: Specify measured Radioactivity distribution Kidney for [123I]c1ccc2nc(-c3cncc(Cn4ccnn4)c3)n(C3CC3)c2c1 [[^123I] 603] .
A: 1.65

---

experiment-summary: In vivo kinetics experiment (radioactivity distribution)
Parameters: species or system Wistar male rat
recorded-conditions: rat, caudal vein, 30 min after administration
// reported Adrenal gland/blood ratio of radioactivity accumulation for each item listed
Number, no unit, nothing else.

[[record]]
molecule = "[123I]c1ccc2nc(-c3cncc(Cn4ccnc4)c3)n(C3CC3)c2c1 [[^123I] 602]"
numeric_value = 40.26

[[record]]
molecule = "Fc1cc2nc(-c3cncc(Cn4ccnc4)c3)n(CC[18F])c2cc1Cl [[^18F] 100]"
numeric_value = 249.08

[[record]]
molecule = "Fc1cc2nc(-c3cncc(Cn4ccnc4)c3)n(CC[18F])c2cc1Br [[^18F] 200]"
numeric_value = 145.45

[[record]]
molecule = "Fc1cc2nc(-c3cncc(Cn4ccnc4)c3)n(CCC[18F])c2cc1Cl [[^18F] 500]"
numeric_value = 206.39

[[record]]
molecule = "[123I]c1ccc2nc(-c3cncc(Cn4ccnn4)c3)n(C3CC3)c2c1 [[^123I] 603]"
numeric_value = 199.21


Proceeding to the next molecule to report its Adrenal gland/blood ratio of radioactivity accumulation.
Q: Return reported Adrenal gland/blood ratio of radioactivity accumulation. Input molecule: FCCn1c(-c2cncc(Cn3ccnc3)c2)nc2cc(F)c([123I])cc21 [[^123I] 400]
A: 40.26

Values compiled from patent US10358434B2.
